Test system: Plutella xylostella
Assay: Antifeedant activity against Plutella xylostella (diamondback moth) at 200 to 600 mg/kg by leaf dip method
Type: functional, organism-based
Calls of active or inactive are those of the source. The rule behind the calls is not given here.

compound	Activity
CCc1nn(C)c(C(=O)NC(CCl)c2ccc(Cl)cc2)c1Cl (centres undefined)	Active
CCCCCOc1ccc(C2COC(c3c(Cl)c(CC)nn3C)=N2)cc1 (centres undefined)	Active
CCc1cc(C2=NC(c3ccc(C(C)(C)C)cc3)CO2)n(C)n1 (centres undefined)	Active
CCc1nn(C)c(C(=O)NC(CCl)c2ccc(Oc3ccccc3)cc2)c1Cl (centres undefined)	Active

---

Reported Activity values for the following compounds.
Tested on: Culex pipiens pallens
Test: Larvicidal activity against Culex pipiens pallens (mosquito) at 2 mg/kg
Assay type: functional

compound	target	unitsSymbol	Activity
CCc1cc(C(=O)NC(CCl)c2ccc(Oc3ccccc3)cc2)n(C)n1 (stereo not drawn)	Culex pipiens pallens	%	100
CCCCCOc1ccc(C2COC(c3cc(CC)nn3C)=N2)cc1 (stereo not drawn)	Culex pipiens pallens	%	0
CCCCCOc1ccc(C(CCl)NC(=O)c2cc(CC)nn2C)cc1 (stereo not drawn)	Culex pipiens pallens	%	60
CCc1cc(C(=O)NC(CCl)c2ccc(Cl)cc2)n(C)n1 (stereo not drawn)	Culex pipiens pallens	%	0
CCCCCOc1ccc(C2COC(c3c(Cl)c(CC)nn3C)=N2)cc1 (stereo not drawn)	Culex pipiens pallens	%	50
CCc1nn(C)c(C(=O)NC(CO)c2ccc(Oc3ccccc3)cc2)c1Cl (stereo not drawn)	Culex pipiens pallens	%	100
CCc1nn(C)c(C2=NC(c3ccc(Cl)cc3)CO2)c1Cl (stereo not drawn)	Culex pipiens pallens	%	50
CCCCCOc1ccc(C(CCl)NC(=O)c2c(Cl)c(CC)nn2C)cc1 (stereo not drawn)	Culex pipiens pallens	%	70

This collection of values is drawn from ChEMBL document CHEMBL3046583.
